Biological target: MDM2-p53 interaction (Homo sapiens (Human), UniProt Q00987)
Sequence (Q00987 whole entry): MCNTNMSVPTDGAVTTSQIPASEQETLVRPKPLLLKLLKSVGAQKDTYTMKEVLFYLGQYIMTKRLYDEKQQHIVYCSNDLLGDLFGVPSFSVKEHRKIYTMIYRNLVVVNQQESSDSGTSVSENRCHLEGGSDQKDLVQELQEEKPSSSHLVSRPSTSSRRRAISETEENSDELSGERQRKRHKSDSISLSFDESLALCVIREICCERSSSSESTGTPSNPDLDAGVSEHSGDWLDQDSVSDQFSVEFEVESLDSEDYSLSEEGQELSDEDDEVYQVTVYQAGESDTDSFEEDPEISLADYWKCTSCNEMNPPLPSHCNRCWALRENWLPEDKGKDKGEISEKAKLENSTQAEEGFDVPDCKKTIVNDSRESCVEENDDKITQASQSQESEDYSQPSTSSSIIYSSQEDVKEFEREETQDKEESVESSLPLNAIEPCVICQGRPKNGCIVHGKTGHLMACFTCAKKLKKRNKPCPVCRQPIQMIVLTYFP
Experiment: MDM2-p53 ELISA binding assay
Settings: Table 1; mean ± SE of n = 3 unless indicated; read-out: ELISA IC50
Description: Streptavidin-coated 96-well plates are used to immobilise a biotin-tagged IP3 p53-derived peptide ([…]). This is a peptide analogue derived from the p53 binding site for MDM2 ([…]). […] Aliquots of MDM2 generated by in vitro translation are pre-incubated for 20 minutes at room temperature (i.e. 20-25° C.) with test compounds and controls, before transfer into the IP3-coated 96-well plates. […]
Here, each record is paired with measured pIC50 data.
The read-out pIC50 is expressed as -log10 of concentration in moles per litre.

                                   compound  result_number
0  O=C1c2ccccc2C(O[C@H]2C=C[C@@H](O)C2)(c2ccc(Cl)cc2)N1Cc1ccccc1 (stereo in doubt)           5.64
1  Cc1ccc(CN2C(=O)c3ccccc3C2(O[C@H]2C=C[C@@H](O)C2)c2ccc(Cl)cc2)cc1 (stereo in doubt)           5.85
2  O=C1c2ccccc2C(OCCCCO)(c2ccc(Cl)cc2)N1CCc1ccc([N+](=O)[O-])cc1 (stereo not shown)           5.49

Proceed to the following item.
Could you tell me which pIC50 is on file for O=C1c2ccccc2C(OC2C=C[C@@H](O)C2)(c2ccc(Cl)cc2)N1Cc1ccc(Cl)cc1 (stereo in doubt) ?
5.82

* * *

Target: MDM2-p53 interaction (Homo sapiens (Human))
Assay: MDM2-p53 ELISA binding assay
Settings: Table 2; mean ± SE of n = 3 unless indicated; read-out: ELISA IC50
MEASURED ENDPOINT: IC50
The reply must contain the numeric value and, after it, the unit.

// lookup IC50 for O=C1c2ccccc2C(OC/C=C\CO)(c2ccc(Cl)cc2)N1Cc1ccc([N+](=O)[O-])cc1 (stereo not shown) [NU8350]
402 nM

For O=C1c2ccccc2C(OCC=CCO)(c2ccc(Cl)cc2)N1Cc1ccc([N+](=O)[O-])cc1 (stereo not shown) [NU8351] then?
405 nM

Next record, please: O=C1c2ccccc2C(OC[C@H]2CC[C@H](CO)CC2)(c2ccc(Cl)cc2)N1Cc1ccc([N+](=O)[O-])cc1 (stereo partly shown) [NU8358]
582 nM

Also need CC(C)(CO)COC1(c2ccc(Cl)cc2)c2ccccc2C(=O)N1Cc1ccc([N+](=O)[O-])cc1 (stereo not shown) [NU8353] , thanks.
395 nM

* * *

Biological target: MDM2-p53 interaction (Homo sapiens (Human), UniProt Q00987)
Experiment: MDM2-p53 ELISA binding assay
Conditions: Table 4; read-out: MDM2 IC50
MEASURED ENDPOINT: pIC50
// pIC50: -log10(molar conc.)

// fetch MDM2-p53 interaction (Homo sapiens (Human), UniProt Q00987) pIC50 for O=C1c2ccccc2C(OCC2(CO)CC2)(c2ccc(Cl)cc2)N1Cc1ccc(Cl)cc1 (stereo not shown)
5.64
